Protocol: Pharmacokinetic (PK) test in mice
Type: in vivo
Measurement Conditions: mouse; male ICR mice, IV, 3 mg/kg, plasma; read-out: AUCINF_obs
Protocol: To male ICR mice, the solution of Compound C2 (1 mg/mL) of the present invention and the solution of control Compound A (1 mg/mL) were administered intravenously (IV) and intragastrically (PO), in both of which the vehicle system is DMSO, solutol and deionized water (1:2:17, v:v:v). For Compound C2 and Compound A, the IV and PO dosages were 3 mg/kg and 20 mg/kg, respectively. […] The pharmacokinetic parameters were calculated using WinNonlin 6.3 software.
Assay Endpoint: AUC(0-inf) (ng·h/mL)
Output spec: scalar in ng·h/mL, unitless text.

>  <Compound>
O=C(O)[C@@H]1CN(C(=O)N(c2ccccc2)c2ccccc2)CCN1C(=O)N(c1ccccc1)c1ccccc1 [A, reference compound]

>  <Assay Endpoint>
AUC(0-inf)

>  <Units Text>
ng·h/mL

>  <Recorded Value>
1200

$$$$

# context switch: different compound, same AUC(0-inf)
Recorded AUC(0-inf) for `O=C(O)[C@@H]1CN(C(=O)N(c2ccccc2)c2ccccc2)CCN1C(=O)N1c2ccccc2C=Cc2ccccc21` , please?
49500

---

Protocol: Pharmacokinetic (PK) test in mice
Type: in vivo
Measurement Conditions: mouse; male ICR mice, IV, 3 mg/kg, plasma
MRT last overview
Record the value in h, omitting the unit from your answer.

>  <Compound>
O=C(O)[C@@H]1CN(C(=O)N(c2ccccc2)c2ccccc2)CCN1C(=O)N(c1ccccc1)c1ccccc1 [A, reference compound]

>  <Recorded Value>
0.29

$$$$

# next compound below
Item under review: `O=C(O)[C@@H]1CN(C(=O)N(c2ccccc2)c2ccccc2)CCN1C(=O)N1c2ccccc2C=Cc2ccccc21` . Reported MRT last?
1.9

---

Target Or Test System: AT2 Receptor (AT2R) (Homo sapiens (Human))
Sequence (P50052 whole entry): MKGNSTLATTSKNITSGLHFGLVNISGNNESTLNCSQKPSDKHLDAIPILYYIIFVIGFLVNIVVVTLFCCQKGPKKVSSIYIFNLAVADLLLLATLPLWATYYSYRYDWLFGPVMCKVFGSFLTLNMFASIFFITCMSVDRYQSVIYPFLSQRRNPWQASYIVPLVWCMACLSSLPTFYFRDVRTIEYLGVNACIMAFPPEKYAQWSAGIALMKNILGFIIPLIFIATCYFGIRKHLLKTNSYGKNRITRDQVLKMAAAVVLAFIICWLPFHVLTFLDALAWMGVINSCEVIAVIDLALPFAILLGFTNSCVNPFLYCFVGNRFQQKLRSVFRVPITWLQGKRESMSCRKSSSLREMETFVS
pIC50: −log10 of the molar value.
Outcome: Criterion met for pIC50 of at least 7; Criterion not met for anything lower.

Worked examples follow.
>  <Smiles Code>
CN1C(=O)c2ccccc2N(C(=O)N2CCN(C(=O)N(c3ccccc3)c3ccccc3)C[C@H]2C(=O)O)c2ccccc21

>  <Category Label>
Criterion met

$$$$
>  <Smiles Code>
COc1ccccc1N(C(=O)N1CCN(C(=O)N2c3ccccc3CC(=O)c3ccccc32)[C@H](C(=O)NS(=O)(=O)N(C)C)C1)c1ccccc1OC

>  <Category Label>
Criterion not met

$$$$

For this molecule, is measured pIC50 7 or higher? `O=C(O)[C@@H]1CN(C(=O)N(c2ccccc2)c2ccccc2)CCN1C(=O)N1c2ccccc2Sc2ccccc21`
Criterion met

Does the reported pIC50 for `O=C(O)[C@@H]1CN(C(=O)OCc2cccs2)CCN1C(=O)N(c1ccccc1)c1ccccc1` fall at or above the 7 mark?
Criterion not met

---

Target or system AT2 Receptor (AT2R) (Homo sapiens (Human), UniProt P50052); recorded quantity pIC50.
In textbook form, pIC50 equals minus log to base ten of the concentration in mol/L.

Some compounds with known pIC50 results, for comparison:
>  <Smiles Code>
O=C(O)[C@H]1CN(C(=O)N(c2ccccc2)c2ccccc2)CCN1C(=O)N1c2ccccc2C=Cc2ccccc21

>  <pIC50>
7.26

$$$$
>  <Smiles Code>
Cc1ccc(CN(C)C(=O)N2CCN(C(=O)N(c3ccccc3)c3ccccc3)[C@H](C(=O)O)C2)s1

>  <pIC50>
7.55

$$$$
>  <Smiles Code>
CCN(Cc1ccc(C)s1)C(=O)N1CCN(C(=O)N(c2ccccc2)c2ccccc2)[C@H](C(=O)O)C1

>  <pIC50>
7.73

$$$$
>  <Smiles Code>
O=C(O)[C@@H]1CN(C(=O)OCc2ccccc2)CCN1C(=O)C1(c2ccccc2)CCCCC1

>  <pIC50>
6.30

$$$$
>  <Smiles Code>
O=C(O)[C@@H]1CN(C(=O)N(c2ccccc2)c2ccccc2)CCN1C(=O)N1c2ccccc2C=Cc2ccccc21

>  <pIC50>
7.69

$$$$

Which pIC50 reading was recorded for the compound `CN(C)S(=O)(=O)NC(=O)[C@@H]1CN(C(=O)N(c2ccccc2)c2ccccc2)CCN1C(=O)N1c2ccccc2CC(=O)c2ccccc21` ?
6.48

Which value of pIC50 has been reported for `O=C1Cc2ccccc2N(C(=O)N2CCN(C(=O)N(c3ccccc3)c3ccccc3)C[C@H]2c2nn[nH]n2)c2ccccc21` in the records?
6.53

Request the reported pIC50 associated with `CCN(Cc1csc(Cl)c1)C(=O)N1CCN(C(=O)N(c2ccccc2)c2ccccc2)[C@H](C(=O)O)C1`
7.58

Tell me the measured pIC50 of `O=C(O)[C@@H]1CN(C(=O)N(c2ccccc2)c2ccccc2)CCN1C(=O)C1(O)c2ccccc2-c2ccccc21` , please.
6.34
